Test system: SNB-19 CNS
test_name: NCI tumour cell line growth inhibition, 48 h
Let's look at some compounds and their measured TGI.

CCCC[C@H](CCc1ccccc1)N(C(=O)OC)N1CCC[C@H]1COC    30.4 µM

Then this compound:
Incoming: What does the record list as TGI for COc1c(O)cc2c(c1O)C(=O)C(Cc1ccc(O)cc1)CO2 (centres undefined) ?
Outgoing: > 100 µM

* * *

Tested on: HS 578T breast
test_name: NCI tumour cell line growth inhibition, 48 h
readout_name: GI50

Here's what some known entries look like.
COc1cc(/C=C2\C(=O)Nc3ccc(Cl)cc32)cc(OC)c1OC    16.5 µM
COc1cc(-c2n/c(=C\c3c(O)[nH]c4ccccc34)cc3c2=Nc2ccccc2-3)ccc1F    19.7 µM
[Mn+3].[O-][Cl+3]([O-])([O-])O.[O-]c1ccccc1C=NCCN1CC1.[O-]c1ccccc1C=NCCN1CC1    33.6 µM

Now for another entry.
Incoming: Find GI50 (HS 578T breast) for the entry Oc1c(CN2CCCCC2)ccc2cccnc12
Outgoing: 11.1 µM

* * *

Test system: OVCAR-4 ovarian
test_name: NCI tumour cell line growth inhibition, 48 h
Catalogue of TGI readings, one per entry.

// below: answered molecules
CCOC(=O)c1ccc(NCc2ccc3nc(OC)c(OC)nc3c2)cc1    > 100 µM
COc1ccc(CC2Cc3ccccc3CC(=O)N2)cc1OC (stereo not given)    > 100 µM

Incoming: I'm curious: which TGI was measured for COC(=O)c1ccc(Oc2nc3ccc(C(F)(F)F)cc3nc2-c2ccccc2)cc1 tested on OVCAR-4 ovarian?
Outgoing: > 100 µM

Incoming: Follow-up entry: CC(=O)OCCCCn1nncc1Cn1ccc(=O)n(Cc2cnnn2CCCCOC(C)=O)c1=O
Outgoing: > 100 µM

* * *

Tested on: KM12 colon
test_name: NCI tumour cell line growth inhibition, 48 h
Recorded TGI by entry

Check out these entries, answers already filled in.
O=C1C2CCCC2N1Cc1ccccc1 (centres undefined)    > 100 µM
C1=C2C3=[N+](CCCC3)CC2Cc2sccc21 (centres undefined)    > 100 µM

Incoming: For the record C[C@@H](c1ccccc1)N1C[C@@H](c2ccc3c(c2)OCO3)[C@@H]2C(=O)CCC[C@@H]21 , what value of TGI is listed for KM12 colon?
Outgoing: > 100 µM

Incoming: Also NC1=Nc2ccccc2Sc2nccn21 ?
Outgoing: 69.9 µM

Incoming: Field entry: CO[C@H]1/C=C/O[C@@]2(C)Oc3c(C)c(O)c4c(O)c(c(/C=N/N5C(C)CN(Cc6ccc(C#N)cc6)CC5C)c(O)c4c3C2=O)NC(=O)/C(C)=C\C=C\[C@H](C)[C@H](O)[C@@H](C)[C@@H](O)[C@@H](C)[C@H](OC(C)=O)[C@@H]1C (some centres undefined)
Outgoing: 12.7 µM

Incoming: Another compound: CCCCCCCC(=O)Nc1nc2[nH]c(CN3CCN(Cc4cccc(I)c4)CC3)c(CN3CCN(Cc4cccc(I)c4)CC3)c2c(=O)[nH]1
Outgoing: 1.75 µM

Incoming: Would you kindly repeat that for Oc1cccc2cccnc12 ?
Outgoing: > 100 µM

Incoming: Can you check COc1ccc(-c2c(NC(=O)Nc3ccc(Cl)c(C(F)(F)F)c3)cnn2-c2ccc(S(N)(=O)=O)cc2)cc1 next?
Outgoing: 11.6 µM

Incoming: And the next one, O=C1/C(=C/c2ccc([N+](=O)[O-])cc2)CCCc2ccccc21 ?
Outgoing: > 100 µM

* * *

As shown below, each of these compounds has a reported TGI value.
System: HCC-2998 colon
test_name: NCI tumour cell line growth inhibition, 48 h
Dear colleague, please return just the value in µM, with no unit written.

NCCCNCc1c2ccccc2c(CNCCCN)c2ccccc12    30.9

Turning now to a further compound:
Incoming: Param readout= TGI; system= HCC-2998 colon; entry= O=CC1=CCCN(CCc2c[nH]c3ccccc23)C1 ; returns value.
Outgoing: 128

* * *

Test system: M14 melanoma
test_name: NCI tumour cell line growth inhibition, 48 h
// reported TGI for each item listed

Some molecules with recorded TGI:
COC(=O)[C@@H](C)C[C@H](Cc1ccc(F)cc1)NC(=O)c1csc([C@@H](C[C@H](C(C)C)N(C)C(=O)[C@@H](NC(=O)[C@H]2CCCCN2C)C2CC2)OC(C)=O)n1    > 5.99 µM
COc1ccc(C/C=C(\C)CCO)cc1    > 100 µM
CO/S(=N/S(=O)(=O)c1ccccc1)c1ccccc1[N+](=O)[O-] (centres undefined)    > 100 µM

Incoming: Can you share its TGI? I mean this molecule: C[C@H](CCC(=O)O)[C@H]1CC[C@H]2[C@@H]3[C@H](O)[C@H](O)[C@@H]4C[C@H](O)CC[C@]4(C)[C@H]3CC[C@]12C
Outgoing: > 100 µM

* * *

System: MDA-MB-435
test_name: NCI tumour cell line growth inhibition, 48 h
readout_name: TGI

COC(=O)[C@H](Cc1ccccc1)NC(=O)OCC1OC(n2cc(C)c(=O)[nH]c2=O)CC1N=[N+]=[N-] (stereo partly drawn)    > 100 µM

Incoming: Observed TGI on MDA-MB-435 for Nc1ccc2nc3n(c2c1)C(c1c(F)cccc1F)SC3 (stereo not drawn) , please.
Outgoing: > 100 µM

Incoming: How about this compound: O=C1NN(C(=O)c2ccccc2)C(c2ccc(Cl)c(Cl)c2)=C/C1=C\c1ccccc1[N+](=O)[O-]
Outgoing: > 6.75 µM

* * *

Below are compounds with their GI50 as measured on HCT-116 colon.

Here are 4 compounds together with their reported answers.
COc1ccc2c(c1)C(=O)/C(=C/c1ccc(O)cc1)O2    4.42 µM
COc1nc2c(c(=O)n1C)CN(c1ccccc1)C(=O)CN2C    60.5 µM
CCC(CO)Nc1nc(NCc2ccccc2)c2n[nH]c(C(C)C)c2n1 (stereo not given)    4.03 µM
COc1cc(-c2n/c(=C\c3c(O)[nH]c4ccccc34)cc3c2=Nc2ccccc2-3)ccc1F    4.09 µM

Turning now to a further compound:
Incoming: // map CO[C@H]1/C=C/O[C@@]2(C)Oc3c(C)c(O)c4c(O)c(c(/C=N/N5C(C)CN(Cc6ccc(C#N)cc6)CC5C)c(O)c4c3C2=O)NC(=O)/C(C)=C\C=C\[C@H](C)[C@H](O)[C@@H](C)[C@@H](O)[C@@H](C)[C@H](OC(C)=O)[C@@H]1C (stereo not given in full) to recorded GI50 (system: HCT-116 colon)
Outgoing: 5.41 µM

* * *

System: NCI-H23 lung
test_name: NCI tumour cell line growth inhibition, 48 h
readout_name: GI50

CC1(C)CC[C@]2(C(=O)NCCNCCN)CC[C@]3(C)C(=CC[C@@H]4[C@@]5(C)CCC(=O)C(C)(C)[C@@H]5CC[C@]43C)[C@@H]2C1    1900 nM
Cn1cc(-c2ncnc3ccc(-c4cnc(Cl)c(NS(C)(=O)=O)c4)cc23)c2ccccc21    903 nM
COc1cc(/C=C/C(=O)c2ccccc2O)ccc1OCCCOc1cc2c(cc1OC)C(=O)N1CCC[C@H]1C=N2    36.3 nM
C=C(C)[C@@H]1C/C=C(/COC(C)=O)CC[C@H]2O[C@@]2(C)CC/C=C(\C)CC1    > 100000 nM
FC(F)(F)c1cccc(Oc2ccc(Nc3ncnc4ccc(OCCCN5CCOCC5)cc34)cc2Cl)c1    3190 nM

Consider now this further molecule.
Incoming: // returns reported GI50 for input COc1ccc2c(c1)C(=O)/C(=C/c1ccc(O)cc1)O2
Outgoing: 13900 nM

* * *

System: 786-0 renal
test_name: NCI tumour cell line growth inhibition, 48 h
Measured GI50 accompanies every entry in the list below.

See these solved cases before continuing.
CCCCCCCC(=O)Nc1nc2[nH]c(CN3CCN(Cc4cccc(I)c4)CC3)c(CN3CCN(Cc4cccc(I)c4)CC3)c2c(=O)[nH]1    0.793 µM
O=C(N/N=C/c1ccc([N+](=O)[O-])cc1)c1ccccc1Nc1ccnc(C(F)(F)F)c1    32.7 µM
COc1cc(OCCCN2CCCC2)ccc1Nc1ncc(Cl)c(Nc2ccccc2P(C)(C)=O)n1    2.7 µM
CC1(C)N=C(N)N=C(N)N1c1cccc(CCCCc2ccc(Cl)c(S(=O)(=O)F)c2)c1    2.67 µM
COc1ccc2c(c1)/C(=C\c1c(-c3ccccc3)nc3sccn13)C(=O)N2    9.01 µM
C[N+]1(CCNP(=S)(NCC[N+]2(C)Cc3c(ccc4c3OCO4)C3C2c2cc4c(cc2C[C@@H]3O)OCO4)NCC[N+]2(C)Cc3c(ccc4c3OCO4)C3C2c2cc4c(cc2C[C@@H]3O)OCO4)Cc2c(ccc3c2OCO3)C2C1c1cc3c(cc1C[C@H]2O)OCO3 (some centres not stated)    5.22 µM
CN1C(c2ccccc2)CC(=NO)CC1c1ccccc1 (configuration not stated)    95.7 µM
COc1nc2c(c(=O)n1C)CN(c1ccccc1)C(=O)CN2C    > 100 µM
N#Cc1c(N)c(C(=O)c2ccc3c(c2)OCCO3)n2c1CCCC2    5.31 µM
COc1cc(/C=C2\C[C@H]3[C@@H]4CC=C5C[C@@H](O)CC[C@]5(C)[C@H]4CC[C@]3(C)[C@H]2O)ccc1OCCN1CCCCC1    0.47 µM

Incoming: Look at this compound and give its reported GI50. NC(CCl)=NCC12CC3CC(CC(C3)C1)C2
Outgoing: 0.966 µM

Incoming: Then what about the compound CCOc1ccc(Nc2ccnc3cc(Cl)ccc23)cc1 ?
Outgoing: 41.1 µM
